Hello, the source for this data is patent EP1210336B1, in case you need it.

- Tested on: HIV-1 variant V179D
- Assay Name: Cytopathic cell killing assay, cross-resistance profile, infected MT-4 cells
- Assay type: cell-based
- Applied Conditions: Human immunodeficiency virus 1, MT4, Table 4; isolate V179D
pEC50: −log10 of the molar value.
The reader will find reported pEC50 values listed item by item below.
Experimental Endpoint: pEC50

[
  {
    "Compound": "CC1Cn2c(=O)[nH]c3cccc(c32)CN1 (stereo not shown) [TIBO, reference compound]",
    "Recorded Measurement": 5.21
  },
  {
    "Compound": "Fc1cccc(F)c1Cn1c(-c2c(F)cccc2F)nc2ccccc21 [compound 26]",
    "Recorded Measurement": 5.64
  },
  {
    "Compound": "Fc1cccc(F)c1C1SCc2nc3ccccc3n21 (stereo not shown) [TZB, reference compound]",
    "Recorded Measurement": 5.51
  },
  {
    "Compound": "Cc1cccc2c1nc(-c1c(F)cccc1F)n2Cc1c(F)cccc1F [compound 33]",
    "Recorded Measurement": 6.30
  }
]

====

- Target: HIV-1 WT RT (Human immunodeficiency virus type 1 group M subtype B)
- Construct: purified RT protein (0.015 mg/mL) was incubated in a 100 µL reaction mixture
- Assay Name: biochemical
- Applied Conditions: Table 7; WT HIV-1 RT, 1 µM drug; read-out: %inhibn (1µM)

[
  {
    "Compound": "COc1cccc2c1nc(-c1c(F)cccc1F)n2Cc1c(F)cccc1F [compound 44]",
    "inhibition at 1 µM (%)": 85
  },
  {
    "Compound": "Fc1cccc(F)c1Cn1c(-c2c(F)cccc2F)nc2c(Cl)cccc21 [compound 55]",
    "inhibition at 1 µM (%)": 75
  },
  {
    "Compound": "Cc1cccc2c1nc(-c1c(F)cccc1F)n2Cc1c(F)cccc1F [compound 33]",
    "inhibition at 1 µM (%)": 71
  },
  {
    "Compound": "Fc1cccc(F)c1Cn1c(-c2c(F)cccc2F)nc2c(Br)cccc21 [compound 54]",
    "inhibition at 1 µM (%)": 78
  },
  {
    "Compound": "O=[N+]([O-])c1cccc2c1nc(-c1c(F)cccc1F)n2Cc1c(F)cccc1F [compound 48]",
    "inhibition at 1 µM (%)": 51
  }
]

====

- Test system: HIV-1 variant V106A
- Assay Name: Cytopathic cell killing assay, cross-resistance profile, infected MT-4 cells
- Format: cell-based
- Applied Conditions: Human immunodeficiency virus 1, MT4, Table 4; isolate V106A
pEC50: −log10 of the molar value.

[
  {
    "Molecule": "CC1Cn2c(=O)[nH]c3cccc(c32)CN1 (stereo not shown) [TIBO, reference compound]",
    "Value Comparator": "=",
    "pEC50": 4.90
  },
  {
    "Molecule": "Cc1cccc2c1nc(-c1c(F)cccc1F)n2Cc1c(F)cccc1F",
    "Value Comparator": "=",
    "pEC50": 4.70
  },
  {
    "Molecule": "Fc1cccc(F)c1C1SCc2nc3ccccc3n21 (stereo not shown) [TZB, reference compound]",
    "Value Comparator": "<",
    "pEC50": 4.70
  },
  {
    "Molecule": "Fc1cccc(F)c1Cn1c(-c2c(F)cccc2F)nc2ccccc21",
    "Value Comparator": "<",
    "pEC50": 4.70
  }
]
